// provenance: paper PMC11912270

# reported pIC50; entries follow
- Test system: PfNF54 ABS parasites
- TEST NAME: SYBR Green I-based proliferative assay, PfNF54 ABS parasites
- Assay type: cell-based, Plasmodium falciparum
- PROTOCOL CONDITIONS: ABS, SYBR Green I, 96 h; mean ± S.E., N = 3 (no S.E.: N = 1)
Please keep in mind that pIC50 is minus log10 of the molar concentration; only the number is needed.

COc1cc[n+]2c(c1)-c1cc(OC)cc[n+]1[Pt-2]21[O+]=C(c2ccccc2)N=C(N(CCO)CCO)[S]1.[Cl-]    6.58

stdin: So what's the measured pIC50 for this one? Cc1cccc(-c2cccc(C)n2)n1.OCCN(CCO)C(=S)N=C([O][Pt+])c1ccccc1.[Cl-]
stdout: 5.54
